Numbers sourced from patent US20100069366A1.

Test system: Staphylococcus aureus (ATCC29213)
test: Microtitre plate assay, IC90 determination, STA 29213
Type: cell-based
setup conditions: Staphylococcus aureus ATCC29213; 90% inhibitory concentration for bacterial growth; resazurin
The label is Satisfied for IC90 (μg/ml) STA 29213 below 10 µg/mL and Not satisfied for IC90 (μg/ml) STA 29213 equal to or exceeding 10 µg/mL.

**Query** Is IC90 (μg/ml) STA 29213 of COc1nc2ccc(Br)cc2cc1C(C(=CCN(C)C)c1cccc(F)c1)c1ccccc1 (racemic) [Compound 25] strictly below 10 µg/mL?
**Result** Not satisfied

**Query** Is IC90 (μg/ml) STA 29213 of COc1nc2ccc(Br)cc2cc1C(C(=CCN1CCN(C)CC1)c1ccccc1)c1ccccc1 (racemic) [Compound 48] strictly below 10 µg/mL?
**Result** Not satisfied

**Query** Is IC90 (μg/ml) STA 29213 of COc1nc2ccc(F)cc2cc1C(=C(CCN(C)C)c1ccccc1)c1ccccc1 (single isomer, unassigned) [Compound 39] strictly below 10 µg/mL?
**Result** Not satisfied

**Query** Is IC90 (μg/ml) STA 29213 of COc1nc2ccc(-c3ccccc3)cc2cc1C(=C(CCn1ccnc1)c1ccccc1)c1ccccc1 [Compound 46] strictly below 10 µg/mL?
**Result** Satisfied

**Query** Is IC90 (μg/ml) STA 29213 of COc1nc2ccc(Br)cc2cc1C(=C(CCn1ccnc1)c1ccccc1)c1ccccc1 (single isomer, unassigned) [Compound 5] strictly below 10 µg/mL?
**Result** Not satisfied
